Hello, the source for this data is the nanobody polyreactivity screen of Harvey et al. (2022), in case you need it.

assay: yeast display, Sf9 membrane polyspecificity reagent, FACS + sequencing; frameworks hold sequencing errors
Measurement label: polyreactivity (PSR sort gate)

Query sequence | Measurement label | Result
QVQLVESGGGLVQAGGSLRLSCAASGRIFHYYAMGWYRQAPGTERELVAAITSSGGSTYYADSVKGRFTISRDNAKNTVYLQMNSLKPEDTAVYYCAAGLIVGRFLRYDYWGQGTQVTVSS | polyreactivity (PSR sort gate) | high polyreactivity
QVQLVESGGGLVQAGGSLRLSSAASGIFSYYAIGWYRQAPGKERELVAAISSSGGSTYYADSVKGRFTISRDNAKNTVYLQMNSLKPEDTAVYYCAVSGGTSRRYYYWGLGTQVTVSS | polyreactivity (PSR sort gate) | high polyreactivity
QDQLVESGGGLVQAGGSLRLSCAPSGRIFTTYGMGWYSQAPGKERELVAAISRSGGSTYYADSVKGRFTISRDNAKNTVYLQMNSLKPEDTAVYYCAAVPTSNSFRSSFYYWGQGTQVTVSS | polyreactivity (PSR sort gate) | high polyreactivity
QVQLVESGGGLVQAGGSLRLSCAASGFIFRNYAMGWYRQAPGKERELVAAISRRAGSTYYADSVKGRFTISRDNAKNTVYLQMNSLKPEVTAVYYCAADSYWRYYPTKYDYWGQGTQVTVSS | polyreactivity (PSR sort gate) | high polyreactivity
QVQLVESGGGLVQAGGSLRLSCAASGSTFTYNAMGWYRQAPGKERELVAVIRPGGNTNDADSVKGRFTISRDNAKNTVYLQMNSLKPEDTAVYYCAKYFGNYSIYDYWGQGTQVTVSS | polyreactivity (PSR sort gate) | low polyreactivity
QVQLVESGGGLVQAGGSLRLSCAASGRIYYSNDMRWYRQAPGKERELVAAISRRDGSTYYADSVKGRFTISRDNAKNTVYLQMNSLKPEDTAVYYCRYYSYRYGYWGQGTQVTVSS | polyreactivity (PSR sort gate) | high polyreactivity
QVQLVESVGGLVQAGGSLRLSCAASGRIFRYYAMGWSSQAPGKESELVAAITSDGRTYYADSVKGRFTISRDNAKNTVYLQMNSQKPEDTAVYYCAADHHSYRYGGYYYWGQGTQVTVAS | polyreactivity (PSR sort gate) | low polyreactivity
QVQHVESGRGLVQAGVSLRLSCAASGIFFGAYAMGWYRQAPGKEREFVAAISRSGGSTYYADSVKGRFTISRDYAKNTVYFQKNSLKPEDSAVYYCNALAKYHYYLGQGTQVTVSS | polyreactivity (PSR sort gate) | high polyreactivity
QVQLVESGGGLLQAGGSLRLSCAASGRNFTHNAMGWYRQAPRKERELVAAITSGGRTTYADSVKGRFTISRDNAKNTVYLQMNSLKPEDSAVYYCNADTGLGSLDFDKRDYWGQGTQVTVSS | polyreactivity (PSR sort gate) | low polyreactivity
QVQLEESGGGLVQAGGSLRLSCAASGRIFYFNTKGWYRQAPGKERELVAAISRSGTSTYYADSVKGRFTISRDFAKNTVYLQMNSLKPEDTAVYYCAARFGVKRGQYDYWGQGTQVTVSS | polyreactivity (PSR sort gate) | high polyreactivity

For every item in the list below, what is its measured polyreactivity (PSR sort gate)?
1. QVQLVESGGGLVQAGGSLRLSCAASGFTFATYAMGWYRQAPGKERELVAAITYRGGRTYYADSVKGRFTISRDNAKNTVYLQMNSLKPEDTAVYYCNTVYPRRLIFGYWGQGTQVTVSS
2. QVQLVESVVGLVQAGGSLRLRCAASGIIFSKYAMGWYIQEPGKERELVARISWRGGDTYYADSVKGRFTISRDNAKNTVYLKMNSMKQEDTSVYYFNARIWGRYFSYTRFDYWGQCTQVTVSS
3. QVQLVESGGGLVQAGGSLRLSCAASGSIFSQYAMGWYRQAPGKERELVAAITSSGGRTYYADSVKGRFTISRDNAKNTVYLQMNSLKPEDTAVYYCAARPYSKRHEYWGQGTQVTVSS
4. QVQLVESGGGLVQAGGSLRLSCAASGRIVGWYAMGWYRQAPGKERELVAGINYGGGRTYYADSVKGRFTISRDNAKNTVYLQMNSLKPEDTAVYYCAAGISGHYYWGQGTQVTVSS
5. QVQLVESGGGLVQAGGSLRISCAASGSTFPYYAMGWYRQAPGKERELVAAISQNGGSTYYADSVKGRFTISRDNAKNTVYLQMNSLKPEDTAGYYCNRTARKLRTVHSSVVGLDYWGQGTQVTVSS

**A:**
high polyreactivity
high polyreactivity
high polyreactivity
high polyreactivity
low polyreactivity
